# Target under test: DHX36 (UniProt Q9H2U1)
# Sequence (Q9H2U1 whole entry, looked up): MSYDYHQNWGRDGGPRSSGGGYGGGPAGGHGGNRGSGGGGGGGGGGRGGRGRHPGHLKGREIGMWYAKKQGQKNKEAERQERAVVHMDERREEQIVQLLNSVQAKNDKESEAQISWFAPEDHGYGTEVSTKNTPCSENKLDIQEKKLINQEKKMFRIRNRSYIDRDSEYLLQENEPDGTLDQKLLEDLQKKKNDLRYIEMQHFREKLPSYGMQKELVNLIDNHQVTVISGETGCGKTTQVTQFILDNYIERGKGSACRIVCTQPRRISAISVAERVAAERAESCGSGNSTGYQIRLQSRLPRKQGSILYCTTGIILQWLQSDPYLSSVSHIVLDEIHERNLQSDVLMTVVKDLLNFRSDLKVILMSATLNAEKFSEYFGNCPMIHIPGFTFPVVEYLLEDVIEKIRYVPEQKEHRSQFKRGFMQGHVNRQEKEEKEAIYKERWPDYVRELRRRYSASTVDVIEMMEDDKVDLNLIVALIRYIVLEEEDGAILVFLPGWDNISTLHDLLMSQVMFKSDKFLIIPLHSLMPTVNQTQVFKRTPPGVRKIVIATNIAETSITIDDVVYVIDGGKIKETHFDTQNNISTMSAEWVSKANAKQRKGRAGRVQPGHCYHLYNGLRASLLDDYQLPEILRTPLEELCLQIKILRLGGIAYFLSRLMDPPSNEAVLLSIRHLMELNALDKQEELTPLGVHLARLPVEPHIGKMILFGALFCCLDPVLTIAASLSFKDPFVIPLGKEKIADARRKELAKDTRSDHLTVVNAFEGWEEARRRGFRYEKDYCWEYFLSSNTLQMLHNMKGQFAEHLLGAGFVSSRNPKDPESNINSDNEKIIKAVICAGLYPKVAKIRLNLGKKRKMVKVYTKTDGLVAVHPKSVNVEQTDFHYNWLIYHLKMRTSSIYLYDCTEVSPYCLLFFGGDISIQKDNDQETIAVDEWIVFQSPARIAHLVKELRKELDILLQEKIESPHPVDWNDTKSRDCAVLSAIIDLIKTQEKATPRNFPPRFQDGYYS
# Protocol: ELISA
# Condition: ELISA performed as in Zyner et al. (ref 43); buffer, salt, pH and temperature not given in the material
Measurement type: Kd
A complete answer gives the number followed by the unit.

Inquiry: What does the record list as Kd for UGUGGGAGGGGCGGGUCUGGGUGC [NRAS G4] ?
Reply text: 0.9 nM

These measurements were taken from paper PMC8611094.
